IC50 for assorted compounds
# EXPERIMENTAL SYSTEM: Na^+, K^+ -ATPase receptor (Canis lupus familiaris)
# Construct: Na^+, K^+ -ATPase receptor purified according to Jorghensen; from tissue
# ASSAY: displacement of the specific 3H-oubain binding from the Na+, K+-ATPase receptor
# STUDY CONDITIONS: 3H-oubain displacement from purified Na+,K+-ATPase; read-out: Binding ^3 H-oubain displacement -log IC50 (converted)
Number only, in nM; omit the unit.

{"columns": ["COMPOUND", "IC50 (nM)"],
 "data": [
  ["C[C@]12CC[C@H]3[C@@H](CC=C4C[C@@H](O)CC[C@@]43C)[C@@H]1CC[C@@H]2/C=C/C=N/OCCN", 251],
  ["CN(C)CCO/N=C/[C@H]1CC[C@H]2[C@@H]3CC=C4C[C@@H](O)CC[C@]4(C)[C@H]3CC[C@]12C", 5010],
  ["CN(C)CCCON=C[C@H]1CC[C@H]2[C@@H]3CC=C4C[C@@H](O)CC[C@]4(C)[C@H]3CC[C@]12C (mixture of isomers)", 1260],
  ["CN(C)CCCO/N=C/C=C/[C@H]1CC[C@H]2[C@@H]3CC=C4C[C@@H](O)CC[C@]4(C)[C@H]3CC[C@]12C", 631],
  ["C[C@]12CC[C@H]3[C@@H](CC=C4C[C@@H](O)CC[C@@]43C)[C@@H]1CC[C@@H]2/C=N/OCCN", 158],
  ["C[C@]12CC[C@H]3[C@@H](CC=C4C[C@@H](O)CC[C@@]43C)[C@@H]1CC[C@@H]2/C=N/OCCCN", 398],
  ["CN(C)CCO/N=C/[C@H]1CC[C@H]2[C@@H]3CC[C@@H]4C[C@@H](OCCN5CCCC5)CC[C@]4(C)[C@H]3CC[C@]12C", 501],
  ["C[C@]12CC[C@H]3[C@@H](CC=C4C[C@@H](O)CC[C@@]43C)[C@@H]1CC[C@@H]2C=NOCCCCN (mixture of isomers)", 2000]
]}

Reported IC50, compound CN(C)CCO/N=C/C=C/[C@H]1CC[C@H]2[C@@H]3CC=C4C[C@@H](O)CC[C@]4(C)[C@H]3CC[C@]12C : ____
1000

====

# EXPERIMENTAL SYSTEM: purified Na^+, K^+ -ATPase (Canis lupus familiaris, UniProt P50997)
# Construct: Na^+, K^+ -ATPase receptor purified according to Jorghensen; from tissue
# ASSAY: inhibition of the activity of the purified Na+, K+-ATPase (% of hydrolysis of 32P-ATP)
# Type: biochemical
READOUT: log10(IC50) (log10 of the value in µM)
Answers are given as log10 of IC50 in µM.

Solved cases below.
{"columns": ["MOLECULE", "log10(IC50)"],
 "data": [
  ["CN(C)CCCO/N=C/C=C/[C@H]1CC[C@H]2[C@@H]3CC=C4C[C@@H](O)CC[C@]4(C)[C@H]3CC[C@]12C", 0.40],
  ["C[C@]12CC[C@H]3[C@@H](CC=C4C[C@@H](O)CC[C@@]43C)[C@@H]1CC[C@@H]2/C=N/OCCCN", 0.60],
  ["CN(C)CCCON=C[C@H]1CC[C@H]2[C@@H]3CC=C4C[C@@H](O)CC[C@]4(C)[C@H]3CC[C@]12C (mixture of isomers)", 1.40]
]}

Reported log10(IC50), molecule CN(C)CCO/N=C/[C@H]1CC[C@H]2[C@@H]3CC=C4C[C@@H](O)CC[C@]4(C)[C@H]3CC[C@]12C : ____
1.90

Reported log10(IC50), molecule CN(C)CCO/N=C/C=C/[C@H]1CC[C@H]2[C@@H]3CC=C4C[C@@H](O)CC[C@]4(C)[C@H]3CC[C@]12C : ____
0.70

Reported log10(IC50), molecule CN(C)CCO/N=C/[C@H]1CC[C@H]2[C@@H]3CC[C@@H]4C[C@@H](OCCN5CCCC5)CC[C@]4(C)[C@H]3CC[C@]12C : ____
0.90
